SYSTEM NAME: T1, His-tagged cynomolgus monkey TIGIT (Acro Biosystems #TIT-05223) (cynomolgus monkey, UniProt A0A7N9I9V4 89-209)
T1 construct: Bought protein; also called cyno TIGIT; cynomolgus TIGIT; not shown: His tag
T1 sequence (A0A7N9I9V4 entry or part of it): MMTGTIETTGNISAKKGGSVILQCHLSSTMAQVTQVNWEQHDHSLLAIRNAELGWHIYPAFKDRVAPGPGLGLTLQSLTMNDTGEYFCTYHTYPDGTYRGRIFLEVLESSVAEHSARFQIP
ASSAY DETAILS: ELISA, coated His-TIGIT, 1 ug/ml
READOUT LABEL: Elisa OD450

| BINDER | READOUT LABEL | ASSAY RESULT |
| --- | --- | --- |
| 43645p1.H10 (scFv, V domains shown) VH: EVQLLESGGGLVQAGGSLRLSCAASGFTFDDYVMTWVRQAPGKGLEWVSLINWSGDRTYYADSVKGRFTISRDNSKNTLYLQMNSLRAEDTAVYYCVKHNLNYYYGMDVWGQGTTVTVSS VL: QSVLTQPPSVSGTPGQRVTISCSGTISNVGNKYVSWYQQVPGTAPKLLIDYNQRPSGVPDRFSGSQSGTSASLTISGLQSEDEADYYCATWDDSLKGWVFGGGTKLTVL | Elisa OD450 | 1.85 OD450 |
| 43645p1.F7 (scFv, V domains shown) VH: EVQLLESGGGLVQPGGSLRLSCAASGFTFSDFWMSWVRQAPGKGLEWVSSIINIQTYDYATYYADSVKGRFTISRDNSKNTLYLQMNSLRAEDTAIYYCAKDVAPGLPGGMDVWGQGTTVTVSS VL: QSVLTQPPSASGTPGQRVTISCSGSNSNIRNNFVSWYQHLPGTAPKLLIYGNSQRPSGVPDRFSGSKSGTSASLAISGLQSEDEADYYCTSWDFSVNGWVFGGGTKLTVL | Elisa OD450 | 1.52 OD450 |
| 43586p2.F02 (scFv, V domains shown) VH: EVQLLESGGGLVQPGGSLRLSCAASGFTFDDYVMSWVRQAPGKGLEWVSLINWNGDKTYYADSVKGRFTISRDNSKNTLYLQMNSLRAEDTAVYYCARHWIVLQYGLDVWGQGTTVTVSS VL: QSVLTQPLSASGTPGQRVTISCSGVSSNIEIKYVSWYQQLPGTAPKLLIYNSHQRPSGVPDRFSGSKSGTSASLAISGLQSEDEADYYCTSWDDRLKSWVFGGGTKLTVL | Elisa OD450 | 1.77 OD450 |

Where do the numbers come from? From patent US20230265187A1.
